- assayMethodText: LGR2 antagonists, dose response, cell-based, HEK293, CRE-luciferase reporter, cherry pick, set 2 (AID 743343);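 also: transfected cells were stimulated with diluted bursicon conditioned medium after compound addition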
- Type: functional
Active and inactive are the calls of the source. No rule for the calls is given here.
propertyName: AC50

CC(=O)c1ccc(Nc2nc(-c3sc(C)nc3C)cs2)cc1    21.8 µM (active)
CCOc1ccc2nc(NC(=O)c3ccco3)sc2c1    8.15 µM (active)
Cc1sc2ncnc(Sc3nnnn3-c3ccccc3)c2c1C    4.15 µM (active)
O=C(Nc1ccc(-c2nc3ccccc3[nH]2)cc1)C1CCCO1 (stereo not given)    6.14 µM (active)

Next item in the queue.
Reported AC50 ( O=C(Nc1cccc(Cl)c1)Nc1nnc(-c2ccncc2)s1 ) = 3.28 µM (active)
